- experiment_summary: in vivo
- Design: species or system mice
- measurement_conditions: BALB/c, mouse, in vivo, po, 16 mg/kg, once daily for 2 d, 16 mg/kg oral; mouse plasma, simulated
endpoint_label: Cmax

>>> result("Cn1cnc(Cn2c(=O)[nH]/c(=N\\c3cc4cn(C)nc4cc3Cl)n(Cc3cc(F)c(F)cc3F)c2=O)n1")
"38800 ng/mL"

====

- experiment_summary: in vivo
- Design: species or system mice
- measurement_conditions: BALB/c, mouse, in vivo, po, 64 mg/kg, one shot, 64 mg/kg oral; mouse plasma, simulated
endpoint_label: Cmax (µg/mL)

>>> quantitative_result("Cn1cnc(Cn2c(=O)[nH]/c(=N\\c3cc4cn(C)nc4cc3Cl)n(Cc3cc(F)c(F)cc3F)c2=O)n1 [ensitrelvir, ensitrelvir fumaric acid]")
159

====

- experiment_summary: in vivo
- Design: species or system mice
- measurement_conditions: BALB/c, mouse, in vivo, po, 32 mg/kg, one shot, 32 mg/kg oral; mouse plasma, simulated
endpoint_label: Cmax (µg/mL)

>>> quantitative_result("Cn1cnc(Cn2c(=O)[nH]/c(=N\\c3cc4cn(C)nc4cc3Cl)n(Cc3cc(F)c(F)cc3F)c2=O)n1 [ensitrelvir, ensitrelvir fumaric acid]")
72.4

====

- experiment_summary: in vivo
- Design: species or system mice
- measurement_conditions: BALB/c, mouse, in vivo, po, 64 mg/kg, twice daily for 2 d, 64 mg/kg oral; mouse plasma, simulated
endpoint_label: Cmax (µg/mL)

>>> quantitative_result("Cn1cnc(Cn2c(=O)[nH]/c(=N\\c3cc4cn(C)nc4cc3Cl)n(Cc3cc(F)c(F)cc3F)c2=O)n1")
188

====

- experiment_summary: in vivo
- Set-up: species or system mice
- measurement_conditions: BALB/c, mouse, in vivo, po, 8 mg/kg, thrice daily for 2 d, 8 mg/kg oral; mouse plasma, simulated; read-out: AUC0–48h
endpoint_label: AUC(0-t) (µg·h/mL)

>>> quantitative_result("Cn1cnc(Cn2c(=O)[nH]/c(=N\\c3cc4cn(C)nc4cc3Cl)n(Cc3cc(F)c(F)cc3F)c2=O)n1")
657

Data origin, for the record: paper PMC10612060
